- Test Target: VLA-4 (α4β1 integrin) (Homo sapiens, UniProt P05556+P13612)
- Sequence (P13612 34-1032): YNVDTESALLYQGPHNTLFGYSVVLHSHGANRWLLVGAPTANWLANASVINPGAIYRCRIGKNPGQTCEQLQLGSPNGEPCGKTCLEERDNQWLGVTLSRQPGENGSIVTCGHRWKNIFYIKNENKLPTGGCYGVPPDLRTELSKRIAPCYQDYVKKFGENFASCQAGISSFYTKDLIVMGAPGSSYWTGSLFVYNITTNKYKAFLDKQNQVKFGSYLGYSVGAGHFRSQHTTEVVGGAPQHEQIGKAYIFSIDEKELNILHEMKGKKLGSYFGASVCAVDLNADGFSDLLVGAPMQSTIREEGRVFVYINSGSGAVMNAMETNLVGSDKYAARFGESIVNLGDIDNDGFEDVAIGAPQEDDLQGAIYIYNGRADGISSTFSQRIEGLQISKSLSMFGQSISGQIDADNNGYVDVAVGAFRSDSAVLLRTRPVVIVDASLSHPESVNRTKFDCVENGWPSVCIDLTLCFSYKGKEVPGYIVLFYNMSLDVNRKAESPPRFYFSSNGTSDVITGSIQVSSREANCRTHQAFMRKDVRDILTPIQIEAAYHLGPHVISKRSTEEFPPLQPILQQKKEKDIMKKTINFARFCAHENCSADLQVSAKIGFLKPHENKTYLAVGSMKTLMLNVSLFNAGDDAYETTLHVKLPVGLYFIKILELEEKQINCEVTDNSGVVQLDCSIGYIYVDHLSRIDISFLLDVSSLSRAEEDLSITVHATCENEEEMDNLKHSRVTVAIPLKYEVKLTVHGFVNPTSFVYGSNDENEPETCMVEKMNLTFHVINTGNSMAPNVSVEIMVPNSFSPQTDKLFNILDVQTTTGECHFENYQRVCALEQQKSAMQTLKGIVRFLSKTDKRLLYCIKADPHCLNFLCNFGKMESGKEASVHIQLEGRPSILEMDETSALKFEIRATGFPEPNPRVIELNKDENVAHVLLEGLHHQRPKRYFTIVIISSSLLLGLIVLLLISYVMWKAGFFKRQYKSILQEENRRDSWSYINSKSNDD
- Sequence (P05556 21-798): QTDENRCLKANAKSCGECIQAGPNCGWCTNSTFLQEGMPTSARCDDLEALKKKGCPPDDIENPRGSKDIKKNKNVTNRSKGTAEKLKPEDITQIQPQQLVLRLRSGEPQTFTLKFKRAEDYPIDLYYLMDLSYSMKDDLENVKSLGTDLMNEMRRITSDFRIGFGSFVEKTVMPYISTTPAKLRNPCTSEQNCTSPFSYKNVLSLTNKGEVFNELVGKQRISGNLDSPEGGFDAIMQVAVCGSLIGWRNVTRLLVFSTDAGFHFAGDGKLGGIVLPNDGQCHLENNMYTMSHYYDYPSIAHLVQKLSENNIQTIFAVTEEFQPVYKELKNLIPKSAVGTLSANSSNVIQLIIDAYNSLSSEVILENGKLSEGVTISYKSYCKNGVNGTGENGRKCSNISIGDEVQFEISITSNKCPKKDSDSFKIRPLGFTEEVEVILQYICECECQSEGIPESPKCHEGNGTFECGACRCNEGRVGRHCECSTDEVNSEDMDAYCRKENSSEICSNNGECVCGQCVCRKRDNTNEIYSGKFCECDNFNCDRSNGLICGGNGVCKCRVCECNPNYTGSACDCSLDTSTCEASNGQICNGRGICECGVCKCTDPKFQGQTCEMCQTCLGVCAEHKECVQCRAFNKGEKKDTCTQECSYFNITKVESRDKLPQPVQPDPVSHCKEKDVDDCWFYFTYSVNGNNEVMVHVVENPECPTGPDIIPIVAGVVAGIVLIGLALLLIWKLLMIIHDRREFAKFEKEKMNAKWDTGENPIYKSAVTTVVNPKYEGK
- Experiment Notes: cell-based
- Assay type: cell-based
- Measurement Conditions: table 14; Ramos cells binding to immobilized VCAM-1; read-out: Ramos IC50
Endpoint: IC50 (µM)

Short answer for `O=C(N[C@@H](Cc1ccc(NC(=O)c2c(Cl)cccc2Cl)cc1)C(=O)O)c1cccc(Cl)c1Cl` : IC50 was 0.00163

Reported IC50 for `Cc1cc(C[C@H](NC(=O)c2c(C)cccc2Cl)C(=O)O)ccc1NC(=O)Cc1cccc(O)c1` was 0.515

What the record says about `Cc1ccc(Cl)c(C(=O)N[C@@H](Cc2ccc(NC(=O)c3c(Cl)cccc3Cl)cc2)C(=O)O)c1` : IC50 is 0.316

# IC50 of `COc1ccc(Br)c(C(=O)N[C@@H](Cc2ccc(NC(=O)c3c(C)ccnc3C)cc2)C(=O)O)c1` = 0.022

(a) COc1ccc(Br)c(C(=O)N[C@@H](Cc2ccc(NC(=O)c3c(Cl)cccc3Cl)cc2)C(=O)O)c1
(b) CCc1cccc(C)c1C(=O)N[C@@H](Cc1ccc(NC(=O)c2c(Cl)cccc2Cl)cc1)C(=O)O
Sorting ascending by IC50, which comes first: a or b ? Refer to your chosen entry by its label in the reply. a
